Provide the reported kon of each item.
# System: T1, human serum albumin (human, UniProt P02768 25-609)
# T1 construct: mature; Bought purified serum albumin; also called HSA; Human albumin
# Method: SPR, Fab captured; albumin taken as HSA;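 note: captured antibody exposed to albumin for 3 min association, then dissociation followed, with blank flow-cell reference and buffer-blank injections subtracted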
Answer in M⁻¹ s⁻¹, number only, no unit symbol.

Entry CA645 gL31gH5 Fab (Fab, V domains shown, Fab: human gamma1 CH1, human kappa (Km3); Kabat numbering) VH: EVQLLESGGGLVQPGGSLRLSCAVSGIDLSNYAINWVRQAPGKGLEWIGIIWASGTTFYATWAKGRFTISRDNSKNTVYLQMNSLRAEDTAVYYCARTVPGYSTAPYFDLWGQGTLVTVSS VL: DIQMTQSPSSVSASVGDRVTITCQSSPSVWSNFLSWYQQKPGKAPKLLIYEASKLTSGVPSRFSGSGTGTDFTLTISSLQPEDFATYYCGGGYSSISDTTFGGGTKVEIK , kon reported as 57200

Entry CA645 gL32gH5 Fab (Fab, V domains shown, Fab: human gamma1 CH1, human kappa (Km3); Kabat numbering) VH: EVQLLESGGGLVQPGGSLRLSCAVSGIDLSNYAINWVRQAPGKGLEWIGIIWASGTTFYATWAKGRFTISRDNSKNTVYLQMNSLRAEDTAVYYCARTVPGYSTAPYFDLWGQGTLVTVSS VL: DIQMTQSPSSVSASVGDRVTITCQSSPSVWSNFLSWYQQKPGKAPKLLIYEASKLTSGVPSRFSGSGQGTDFTLTISSLQPEDFATYYCGGGYSSISDTTFGGGTKVEIK , kon reported as 58600

Entry CA645 gL33gH5 Fab (Fab, V domains shown, Fab: human gamma1 CH1, human kappa (Km3); Kabat numbering) VH: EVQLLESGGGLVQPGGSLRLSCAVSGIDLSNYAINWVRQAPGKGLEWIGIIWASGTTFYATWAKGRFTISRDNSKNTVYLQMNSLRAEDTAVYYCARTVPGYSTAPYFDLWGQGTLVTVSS VL: DIQMTQSPSSVSASVGDRVTITCQSSPSVWSNFLSWYQQKPGKAPKLLIYEASKLTSGVPSRFSGSGEGTDFTLTISSLQPEDFATYYCGGGYSSISDTTFGGGTKVEIK , kon reported as 54000

Entry CA645 gL28gH5 Fab (Fab, V domains shown, Fab: human gamma1 CH1, human kappa (Km3); Kabat numbering) VH: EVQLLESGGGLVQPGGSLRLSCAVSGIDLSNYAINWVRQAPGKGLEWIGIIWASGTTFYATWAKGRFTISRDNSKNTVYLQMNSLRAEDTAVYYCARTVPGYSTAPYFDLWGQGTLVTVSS VL: DIQMTQSPSSVSASVGDRVTITCQSSPSVWSNFLSWYQQKPGKAPKLLIYEASKLTSGVPSRFSGSGLGTDFTLTISSLQPEDFATYYCGGGYSSISDTTFGGGTKVEIK , kon reported as 59000

Entry CA645 gL11gH5 Fab (Fab, V domains shown, Fab: human gamma1 CH1, human kappa (Km3); Kabat numbering) VH: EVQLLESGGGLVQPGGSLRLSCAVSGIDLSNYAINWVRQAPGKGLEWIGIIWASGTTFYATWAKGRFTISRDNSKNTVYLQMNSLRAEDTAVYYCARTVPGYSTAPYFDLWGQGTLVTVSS VL: DIQMTQSPSSVSASVGDRVTITCQSSPNVWSNFLSWYQQKPGKAPKLLIYEASKLTSGVPSRFSGSGSGTDFTLTISSLQPEDFATYYCGGGYSSISDTTFGGGTKVEIK , kon reported as 56400
